Assay: Half life in Sprague-Dawley rat plasma at 20 mg/kg, IP by LC-MS/MS analysis
Assay type: ADME, organism-based
assay-endpoint: half-life (h)
Entry rule: numbers only, all in h.

Which half-life is reported for this compound? Cc1ncsc1-c1ccc([C@H](C)NC(=O)[C@@H]2C[C@@H](O)CN2C(=O)[C@@H](NC(=O)CCCCCCCCN2CCN(S(=O)(=O)c3ccc(NC(=O)NCc4cccnc4)cc3)CC2)C(C)(C)C)cc1
5.41

---

Experiment: Tmax in Sprague-Dawley rat plasma at 20 mg/kg, IP by LC-MS/MS analysis
Assay type: ADME, organism-based
assay-endpoint: Tmax (h)
Entry rule: numbers only, all in h.

Which Tmax is reported for this compound? Cc1ncsc1-c1ccc([C@H](C)NC(=O)[C@@H]2C[C@@H](O)CN2C(=O)[C@@H](NC(=O)CCCCCCCCN2CCN(S(=O)(=O)c3ccc(NC(=O)NCc4cccnc4)cc3)CC2)C(C)(C)C)cc1
5
